assay.summary: physchem
test.context: octan-1-ol/water, pH 7.4, LogD7.4
quantity.kind: logD
Give the value as a plain number.

Lab book: logD of O=C(CSc1nccn(-c2ccc(F)c(F)c2)c1=O)NC1CCCC1 noted as 2

According to the records, this compound COc1ccc(Cl)cc1C(=O)NCCc1ccc(S(=O)(=O)NC(=O)NC2CCCCC2)cc1 [GLYBURIDE] displays logD of 2.23

Consider Cc1ccc(NC(=O)c2ccnc(N3CCOCC3)c2)cc1Nc1ccnc(Cl)n1 . Its measured logD is 3.1

N#Cc1cccc(S(=O)(=O)NC(=O)N2CCC(N3CCC(Oc4ccc(Cl)c(Cl)c4)CC3)CC2)c1 yielded logD of 1.81

logD reading for N=C(N)c1cc2c(I)cccc2s1 : 0.74
